System: BT-20
Assay Remarks: 8-day growth inhibition
Format: cell-based
Setup Conditions: Breast, BT-20, 8-day assay
Measure Name: pIC50
Keep it numeric: pIC50 is minus log10 of the concentration in mol/L.

Please fill in: pIC50 reported for `O=c1[nH]nc2c3c(cccc13)N=C(CN1Cc3ccccc3C1)N2` = 5.10

* * *

Test system: SNG-M
Assay Remarks: 8-day growth inhibition
Assay type: cell-based
Setup Conditions: Endometrial, 8-day assay
Measure Name: IC50 (nM)
Record the value in nM, omitting the unit from your answer.

Please fill in: IC50 reported for `O=c1[nH]nc2c3c(cccc13)N=C(CN1Cc3ccccc3C1)N2` = 1360

* * *

Tested on: SF-295
Assay Remarks: 8-day growth inhibition
Format: cell-based
Setup Conditions: GBM, SF-295, 8-day assay
Measure Name: pIC50
Keep it numeric: pIC50 is minus log10 of the concentration in mol/L.

Please fill in: pIC50 reported for O=c1[nH]nc2c3c(cccc13)N=C(CN1Cc3ccccc3C1)N2 [E7449] = 5.59

* * *

Test system: NCI-H524
Assay Remarks: 8-day growth inhibition
Type: cell-based
Setup Conditions: SCLC, NCI-H524, 8-day assay
Measure Name: pIC50
Keep it numeric: pIC50 is minus log10 of the concentration in mol/L.

Please fill in: pIC50 reported for `O=c1[nH]nc2c3c(cccc13)N=C(CN1Cc3ccccc3C1)N2` = 6.16

* * *

Tested on: Jeko-1
Assay Remarks: 8-day growth inhibition
Assay type: cell-based
Setup Conditions: MCL, Jeko-1, 8-day assay
Measure Name: IC50 (µM)
Record the value in µM, omitting the unit from your answer.

Please fill in: IC50 reported for `O=c1[nH]nc2c3c(cccc13)N=C(CN1Cc3ccccc3C1)N2` = 1.9

* * *

Tested on: NCI-H446
Assay Remarks: 8-day growth inhibition
Type: cell-based
Setup Conditions: SCLC, NCI-H446, 8-day assay
Measure Name: IC50 (nM)
Record the value in nM, omitting the unit from your answer.

Please fill in: IC50 reported for O=c1[nH]nc2c3c(cccc13)N=C(CN1Cc3ccccc3C1)N2 [E7449] = 610

* * *

Test system: HEC-6
Assay Remarks: 8-day growth inhibition
Type: cell-based
Setup Conditions: Endometrial, HEC-6, 8-day assay
Measure Name: IC50 (nM)
Record the value in nM, omitting the unit from your answer.

Please fill in: IC50 reported for `O=c1[nH]nc2c3c(cccc13)N=C(CN1Cc3ccccc3C1)N2` = 1880

* * *

Tested on: MDA-MB-231
Assay Remarks: 8-day growth inhibition
Assay type: cell-based
Setup Conditions: Breast, MDA-MB-231, 8-day assay
Measure Name: IC50 (µM)
Record the value in µM, omitting the unit from your answer.

Reported MDA-MB-231 IC50 for item O=c1[nH]nc2c3c(cccc13)N=C(CN1Cc3ccccc3C1)N2 [E7449] was 25

* * *

Test system: HEC-108
Assay Remarks: 8-day growth inhibition
Format: cell-based
Setup Conditions: Endometrial, HEC-108, 8-day assay
Measure Name: IC50 (µM)
Record the value in µM, omitting the unit from your answer.

Please fill in: IC50 reported for O=c1[nH]nc2c3c(cccc13)N=C(CN1Cc3ccccc3C1)N2 [E7449] = 5.97

* * *

Test system: NCI-H1694
Assay Remarks: 8-day growth inhibition
Assay type: cell-based
Setup Conditions: SCLC, NCI-H1694, 8-day assay
Measure Name: pIC50
Keep it numeric: pIC50 is minus log10 of the concentration in mol/L.

Reported NCI-H1694 pIC50 for item `O=c1[nH]nc2c3c(cccc13)N=C(CN1Cc3ccccc3C1)N2` was 5.61
